Attribute: growth inhibition
MEASUREMENT_NOTES: NCI Yeast Anticancer Drug Screen. Data for the bub3 strain (AID 167)
STUDY_CONDITIONS: S. cerevisiae bub3 mutant strain, at 50.0 µM, active compounds read high
This is part of a sample that, as a whole, favours compounds with a hit. Of some 79,000 tested, about 15% had one in any assay.
# unit: % | format: bare number

1) O=C1/C(=C/c2ccccc2)CNC/C1=C\c1ccccc1 = 94.2
2) Cc1ccccc1NCc1ccccc1Cl = 99.5
3) Cc1[nH]nc(C(F)(F)F)c1N=NN1CCC(C(N)=O)CC1 = 99.5
4) COc1ccccc1C(=O)c1ccc2ccccc2c1 = 83.6
5) CC(=O)/C(=C\c1cccc(Cl)c1)C(=O)CCN(C)C = 4.4

Value lookup for growth inhibition; key = CC(C)Cn1cnc2c(SCc3cccc(F)c3)nc(N)nc21 73.3

Value lookup for growth inhibition; key = CC1CC(OC(=O)Nc2ccccc2)CC(C)(C)C1 (stereo not drawn) 90.3

Value lookup for growth inhibition; key = O=C(/C=C/c1cccnc1)c1cc(Cl)ccc1O 5.2

Value lookup for growth inhibition; key = O=[N+]([O-])/C=C/C=C/c1ccco1 99.1

Value lookup for growth inhibition; key = O=[N+]([O-])c1cccc(S(=O)(=O)Nc2cccc3ccccc23)c1 99.2
